experimental target: μ receptors (Cavia porcellus, UniProt P97266)
Sequence (P97266 whole entry, looked up): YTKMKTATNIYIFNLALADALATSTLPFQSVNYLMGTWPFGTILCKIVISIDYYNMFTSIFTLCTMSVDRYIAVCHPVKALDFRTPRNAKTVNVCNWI
protocol notes: Guinea pig ileum (GPI) functional bioassay (Example 48)
Non-standard residues stand in square brackets, D forms with d. Residues, ends and D or L forms follow the SMILES beside them. *: point of attachment. Dmt = Cc1cc(O)cc(C)c1C[C@H](N)C(=O)O; Tic = O=C(O)[C@@H]1Cc2ccccc2CN1; NHtBu = CC(C)(C)N*
measurement kind: log10(EC50) (log10 of the value in µM)
Hi team, quick reminder: these entries are log10 of EC50 (µM).

Req: Recall the reported log10(EC50) of Cc1cc(O)cc(C)c1C[C@H](N)C(=O)N1Cc2ccccc2C[C@@H]1C(=O)NC12CC3CC(CC(C3)C1)C2 when tested on μ receptors (Cavia porcellus, UniProt P97266).
Resp: 0.23

Req: Identify measured log10(EC50) obtained with μ receptors (Cavia porcellus, UniProt P97266) for Cc1cc(O)cc(C)c1C[C@H](N)C(=O)N1Cc2ccccc2C[C@H]1C(=O)N[C@@H](C)C(=O)NC12CC3CC(CC(C3)C1)C2 .
Resp: 0.00

Req: Provide the reported log10(EC50) (system: μ receptors (Cavia porcellus, UniProt P97266)) for Cc1cc(O)cc(C)c1C[C@@H](C(=O)N1Cc2ccccc2C[C@@H]1C(=O)NC12CC3CC(CC(C3)C1)C2)N(C)C
Resp: 0.65

Continuing:
Req: Please tell me the measured log10(EC50) for CNC(=O)[C@H](C)NC(=O)[C@@H]1Cc2ccccc2CN1C(=O)[C@@H](N)Cc1c(C)cc(O)cc1C [Compound 18, H-Dmt-Tic-Ala-NHMe] (H-[Dmt]-[Tic]-Ala-NHMe) ; system: μ receptors (Cavia porcellus, UniProt P97266).
Resp: -0.54

Req: Fill: log10(EC50) (μ receptors (Cavia porcellus, UniProt P97266)) for this compound Cc1cc(O)cc(C)c1C[C@H](N)C(=O)N1Cc2ccccc2C[C@H]1C(=O)NC(C)(C)C [Compound 9, H-Dmt-Tic-NH-tBu] (H-[Dmt]-[Tic]-NHtBu)
Resp: 0.02

Req: Give μ receptors (Cavia porcellus, UniProt P97266) log10(EC50) for the following compound: Cc1cc(O)cc(C)c1C[C@H](N)C(=O)N1Cc2ccccc2C[C@H]1C(=O)NC12CC3CC(CC(C3)C1)C2
Resp: -1.44

Req: Please indicate recorded log10(EC50) of Cc1cc(O)cc(C)c1C[C@@H](C(=O)N1Cc2ccccc2C[C@H]1C(=O)NC12CC3CC(CC(C3)C1)C2)N(C)C measured with μ receptors (Cavia porcellus, UniProt P97266).
Resp: -1.80

----------
experimental target: δ-opioid receptors (Rattus norvegicus, UniProt P33533)
Construct: assayed with a rat brain synaptosomal preparation (P2); from tissue; host or cells: rat brain P2 synaptosomes
Sequence (P33533 whole entry): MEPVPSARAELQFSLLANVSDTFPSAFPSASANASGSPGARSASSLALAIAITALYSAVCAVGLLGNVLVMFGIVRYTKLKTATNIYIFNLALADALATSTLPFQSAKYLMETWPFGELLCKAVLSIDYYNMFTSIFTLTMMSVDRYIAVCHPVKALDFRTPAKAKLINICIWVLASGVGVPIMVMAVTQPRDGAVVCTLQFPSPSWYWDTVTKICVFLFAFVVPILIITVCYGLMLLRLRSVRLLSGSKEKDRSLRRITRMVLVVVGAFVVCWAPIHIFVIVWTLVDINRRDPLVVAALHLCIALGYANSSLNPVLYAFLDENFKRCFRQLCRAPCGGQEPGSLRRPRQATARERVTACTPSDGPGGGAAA
protocol notes: Rat brain synaptosome (P2) binding, agonist [3H]DPDPE (Example 47)
Here, each record is paired with measured Ki data.
Numeric answer only, unit nM assumed.

Here's what some known entries look like.
Req: Read off the recorded Ki for Cc1cc(O)cc(C)c1C[C@@H](C(=O)N1Cc2ccccc2C[C@H]1C(=O)NC12CC3CC(CC(C3)C1)C2)N(C)C [Compound 15, N,N(Me)2-Dmt-Tic-NH-1-adamantane]
Resp: 0.16

Req: Give the value of Ki reported for the following: Cc1cc(O)cc(C)c1C[C@@H]1NC(=O)[C@@H]2Cc3ccccc3CN2C1=O [cyclo (DMT-Tic), reference compound]
Resp: 9.58

Req: Specify measured Ki for Cc1cc(O)cc(C)c1C[C@@H](C(=O)N1Cc2ccccc2C[C@@H]1C(=O)NC12CC3CC(CC(C3)C1)C2)N(C)C [Compound 16, N,N(Me)2-Dmt-D-Tic-NH-1-adamantane] .
Resp: 140

Req: Identify Ki associated with the compound Cc1cc(O)cc(C)c1C[C@H](N)C(=O)N1Cc2ccccc2C[C@@H]1C(=O)NC12CC3CC(CC(C3)C1)C2 [Compound 12, H-Dmt-D-Tic-NH-1-adamantane]
Resp: 24.5

Req: Assign Ki to the following record: Cc1cc(O)cc(C)c1C[C@H](N)C(=O)N1Cc2ccccc2C[C@H]1C(=O)NC12CC3CC(CC(C3)C1)C2 [Compound 11, H-Dmt-Tic-NH-1-adamantane]
Resp: 0.26

Further cases:
Req: Supply reported Ki belonging to this compound: CCN(CC)[C@@H](Cc1c(C)cc(O)cc1C)C(=O)N1Cc2ccccc2C[C@H]1C(=O)O [Compound 17, N,N(Et)2-DMT-Tic-OH]
Resp: 0.92

----------
experimental target: δ receptors (Rattus norvegicus, UniProt P33533)
Construct: assayed with a rat brain synaptosomal preparation (P2); from tissue; host or cells: rat brain P2 synaptosomes
Sequence (P33533 whole entry): as the sequence (P33533 whole entry) above
protocol notes: Radio-receptor competition assay, rat brain synaptosomes, [3H]DPDPE (Example 74)
Format: binding
condition: selectivity Kiμ/Kiδ
Non-standard residues stand in square brackets, D forms with d. Residues, ends and D or L forms follow the SMILES beside them. *: point of attachment. Dmt = Cc1cc(O)cc(C)c1C[C@H](N)C(=O)O; Tic = O=C(O)[C@@H]1Cc2ccccc2CN1; NHPh = c1ccc(N*)cc1
measurement kind: μ/δ
Could you respond with only the numeric value?

Take a look at these entries with their results.
Req: Enter μ/δ (test system δ receptors (Rattus norvegicus, UniProt P33533)) for Cc1cc(O)cc(C)c1C[C@H](N)C(=O)N1Cc2ccccc2C[C@H]1C(=O)N[C@@H](C)C(N)=O [H-Dmt-Tic-Ala-NH2, reference compound] (H-[Dmt]-[Tic]-Ala-NH2)
Resp: 195

Req: Send back δ receptors (Rattus norvegicus, UniProt P33533) μ/δ of Cc1cc(O)cc(C)c1C[C@H](N)C(=O)N1Cc2ccccc2C[C@H]1CO [H-Dmt-Tic-ol, reference compound] only.
Resp: 344

Req: Provide μ/δ, recorded with δ receptors (Rattus norvegicus, UniProt P33533), of Cc1cc(O)cc(C)c1CC(N)C(=O)N1Cc2ccccc2CC1c1nc2ccccc2[nH]1 (centres unmarked)
Resp: 7.28

Req: GET μ/δ where system = δ receptors (Rattus norvegicus, UniProt P33533) and item = Cc1cc(O)cc(C)c1C[C@H](N)C(=O)N1Cc2ccccc2C[C@H]1C(=O)NCC(=O)Nc1ccccc1 [Compound 27, H-Dmt-Tic-Gly-NH-Ph] (H-[Dmt]-[Tic]-Gly-NHPh)
Resp: 3.6

// below: μ/δ requested for another molecule
Req: Fetch value of μ/δ on δ receptors (Rattus norvegicus, UniProt P33533) for Cc1cc(O)cc(C)c1C[C@H](N)C(=O)N1Cc2ccccc2C[C@H]1C(=O)NCC(=O)NCc1nc2ccccc2[nH]1 .
Resp: 353

----------
experimental target: δ-opioid receptors (Rattus norvegicus, UniProt P33533)
Construct: assayed with a rat brain synaptosomal preparation (P2); from tissue; host or cells: rat brain P2 synaptosomes
protocol notes: Rat brain synaptosome (P2) binding, agonist [3H]DPDPE (Example 47)
condition: rat brain synaptosomes (P2); mean ± SEM, n in parentheses; read-out: Kiδ(nM) [^3H]DPDPE
Non-standard residues stand in square brackets, D forms with d. Residues, ends and D or L forms follow the SMILES beside them. Dmt = Cc1cc(O)cc(C)c1C[C@H](N)C(=O)O; Tic = O=C(O)[C@@H]1Cc2ccccc2CN1
In plain terms, low Ki, meaning strictly below 0.2 nM, gives class 1, and everything else gives class 0.

Req: I'd appreciate it if you could check whether CNC(=O)[C@H](C)NC(=O)[C@@H]1Cc2ccccc2CN1C(=O)[C@@H](N)Cc1c(C)cc(O)cc1C [Compound 18, H-Dmt-Tic-Ala-NHMe] (H-[Dmt]-[Tic]-Ala-NHMe) has Ki smaller than 0.2 nM.
Resp: class 1

----------
experimental target: δ receptors (Mus musculus, UniProt P32300)
Sequence (P32300 whole entry): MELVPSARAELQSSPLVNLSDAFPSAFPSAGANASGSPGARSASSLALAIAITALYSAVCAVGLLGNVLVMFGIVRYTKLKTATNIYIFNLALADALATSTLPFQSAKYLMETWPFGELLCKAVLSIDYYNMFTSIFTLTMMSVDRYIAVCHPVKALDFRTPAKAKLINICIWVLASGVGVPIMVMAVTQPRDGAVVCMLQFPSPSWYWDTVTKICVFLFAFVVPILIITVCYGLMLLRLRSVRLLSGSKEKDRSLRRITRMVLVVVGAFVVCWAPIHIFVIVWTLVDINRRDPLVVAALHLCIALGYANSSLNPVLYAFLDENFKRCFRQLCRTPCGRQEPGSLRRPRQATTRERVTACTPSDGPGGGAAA
protocol notes: MVD functional pharmacological bioassay (Example 75)
Set-up: A single MVD was suspended in 4 ml modified Kreb's solution; from tissue; host or cells: mouse vas deferens
Non-standard residues stand in square brackets, D forms with d. Residues, ends and D or L forms follow the SMILES beside them. *: point of attachment. Dmt = Cc1cc(O)cc(C)c1C[C@H](N)C(=O)O; Tic = O=C(O)[C@@H]1Cc2ccccc2CN1; NHPh = c1ccc(N*)cc1
measurement kind: pEC50
The scale used: pEC50 is minus the common logarithm of the concentration in molar units.

Req: Retrieve pEC50 measured for Cc1cc(O)cc(C)c1C[C@H](N)C(=O)N1Cc2ccccc2C[C@H]1C(=O)NCC(=O)Nc1ccccc1 [Compound 27, H-Dmt-Tic-Gly-NH-Ph] (H-[Dmt]-[Tic]-Gly-NHPh) and print it.
Resp: 8.52

----------
experimental target: hMDR-1 (Homo sapiens, UniProt P08183)
Sequence (P08183 whole entry): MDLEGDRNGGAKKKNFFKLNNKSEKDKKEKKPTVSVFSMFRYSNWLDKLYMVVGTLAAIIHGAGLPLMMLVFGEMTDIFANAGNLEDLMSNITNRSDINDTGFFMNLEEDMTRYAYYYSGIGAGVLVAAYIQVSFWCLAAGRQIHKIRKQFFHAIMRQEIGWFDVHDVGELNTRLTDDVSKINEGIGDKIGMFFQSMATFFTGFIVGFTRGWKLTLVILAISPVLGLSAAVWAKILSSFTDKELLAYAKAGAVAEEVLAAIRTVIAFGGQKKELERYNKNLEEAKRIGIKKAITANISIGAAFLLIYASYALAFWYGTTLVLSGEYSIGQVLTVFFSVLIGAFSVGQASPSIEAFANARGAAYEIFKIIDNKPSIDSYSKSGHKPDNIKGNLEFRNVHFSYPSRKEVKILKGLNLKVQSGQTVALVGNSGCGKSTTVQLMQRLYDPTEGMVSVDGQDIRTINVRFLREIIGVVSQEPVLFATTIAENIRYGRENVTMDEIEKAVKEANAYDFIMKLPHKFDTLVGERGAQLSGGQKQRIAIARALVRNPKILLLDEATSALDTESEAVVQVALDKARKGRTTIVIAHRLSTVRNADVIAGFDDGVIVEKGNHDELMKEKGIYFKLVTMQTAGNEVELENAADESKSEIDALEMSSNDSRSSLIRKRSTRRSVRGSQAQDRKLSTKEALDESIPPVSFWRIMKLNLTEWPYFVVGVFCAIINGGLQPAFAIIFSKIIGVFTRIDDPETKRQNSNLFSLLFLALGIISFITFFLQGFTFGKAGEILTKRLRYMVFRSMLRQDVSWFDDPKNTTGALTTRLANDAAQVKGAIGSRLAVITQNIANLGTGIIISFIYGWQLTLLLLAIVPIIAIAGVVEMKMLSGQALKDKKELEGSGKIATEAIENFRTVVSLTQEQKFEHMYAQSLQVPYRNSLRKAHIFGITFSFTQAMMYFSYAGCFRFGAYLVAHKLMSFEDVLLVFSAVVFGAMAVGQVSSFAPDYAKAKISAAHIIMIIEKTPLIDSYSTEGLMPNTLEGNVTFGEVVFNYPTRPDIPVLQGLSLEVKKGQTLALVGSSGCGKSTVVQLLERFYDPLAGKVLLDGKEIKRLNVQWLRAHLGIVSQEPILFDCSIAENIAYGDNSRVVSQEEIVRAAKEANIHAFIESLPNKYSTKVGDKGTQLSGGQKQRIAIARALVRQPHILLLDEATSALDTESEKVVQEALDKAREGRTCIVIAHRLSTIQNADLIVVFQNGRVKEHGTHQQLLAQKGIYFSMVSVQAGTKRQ
protocol notes: Calcein AM assay for Pgp in hMDR-1 transfected G-185 fibroblasts (Example 49)
condition: calcein fluorescence
Protocol: Stably transfected G-185 fibroblasts containing hMDR-1 and NIH 3T3 cell lines were grown to confluent monolayers in DMEM containing 4.5 g glucose/1, 10% fetal calf serum, L-glutamine, penicillin (50 units/ml), streptomycin (50 μg/ml) and 1 mM sodium pyruvate in 5% CO2 at 37° C. […] The assay for Pgp is based on the diffusion of non-fluorescent calcein AM across the cell membrane. […] Means±SE (error bars) were determined and plotted using Prism™ (GraphPad, San Diego, Calif.).
Non-standard residues stand in square brackets, D forms with d. Residues, ends and D or L forms follow the SMILES beside them. Dmt = Cc1cc(O)cc(C)c1C[C@H](N)C(=O)O; Tic = O=C(O)[C@@H]1Cc2ccccc2CN1
measurement kind: inhibition of hMDR-1 (Pgp), in words

Req: Give reported inhibition of hMDR-1 (Pgp), in words value for Cc1cc(O)cc(C)c1C[C@@H](C(=O)N1Cc2ccccc2C[C@H]1C(=O)O)N1CCCCC1 [Compound 3, [des-NH2-α-piperidine-1-yl]-Dmt-Tic-OH]
Resp: inactive

Req: Indicate the recorded inhibition of hMDR-1 (Pgp), in words value for this molecule: Cc1cc(O)cc(C)c1C[C@H](N)C(=O)N1Cc2ccccc2C[C@H]1C(=O)N[C@@H](C)C(N)=O [H-Dmt-Tic-Ala-NH2, reference compound] (H-[Dmt]-[Tic]-Ala-NH2)
Resp: inactive

Req: Give a short answer stating reported inhibition of hMDR-1 (Pgp), in words for Cc1cc(O)cc(C)c1C[C@@H](C(=O)N1Cc2ccccc2C[C@H]1C(=O)O)N(C)C [N,N(Me)2-Dmt-Tic-OH, reference compound] .
Resp: inactive
